System: rat prostate, seminal vesicle, levator ani muscle
assayNotes: Systemic androgenic activity in orchidectomized immature male rats
Assay type: in vivo
testParameters: po, 168 h, Table 3, p.o, 0.2 mg/animal daily 7 days, read-out: % Stimulation Prostate
The entries below are paired with their reported change in vivo at 0.2 mg.
quantity: change in vivo at 0.2 mg (%)

molecule=Cc1c(N2C(=O)C(C)(C)N(CCCOc3ccc(S(=O)(=O)C(C)C)cc3)C2=S)ccc(C#N)c1Cl reportedmeasurement=29
molecule="CCC(c1ccc(OCCCN2C(=S)N(c3ccc(C#N)c(Cl)c3C)C(=O)C2(C)C)cc1)N(C)C (stereo not drawn)" reportedmeasurement=42
molecule=CCS(=O)(=O)c1ccc(OCCCN2C(=S)N(c3ccc(C#N)c(Cl)c3C)C(=O)C2(C)C)cc1 reportedmeasurement=41
molecule=Cc1c(N2C(=O)C(C)(C)N(CCCOc3ccc(-n4ccnc4)cc3)C2=S)ccc(C#N)c1Cl reportedmeasurement=47
molecule=CC(=O)Nc1ccc(OCCCN2C(=S)N(c3ccc(C#N)c(Cl)c3C)C(=O)C2(C)C)cc1 reportedmeasurement=33
molecule=Cc1c(N2C(=O)C(C)(C)N(CCCOc3ccc(S(C)(=O)=O)cc3)C2=S)ccc(C#N)c1Cl reportedmeasurement=27

---

assayedTarget: Human Androgen Receptor (Homo sapiens, UniProt P10275)
Sequence (P10275 whole entry): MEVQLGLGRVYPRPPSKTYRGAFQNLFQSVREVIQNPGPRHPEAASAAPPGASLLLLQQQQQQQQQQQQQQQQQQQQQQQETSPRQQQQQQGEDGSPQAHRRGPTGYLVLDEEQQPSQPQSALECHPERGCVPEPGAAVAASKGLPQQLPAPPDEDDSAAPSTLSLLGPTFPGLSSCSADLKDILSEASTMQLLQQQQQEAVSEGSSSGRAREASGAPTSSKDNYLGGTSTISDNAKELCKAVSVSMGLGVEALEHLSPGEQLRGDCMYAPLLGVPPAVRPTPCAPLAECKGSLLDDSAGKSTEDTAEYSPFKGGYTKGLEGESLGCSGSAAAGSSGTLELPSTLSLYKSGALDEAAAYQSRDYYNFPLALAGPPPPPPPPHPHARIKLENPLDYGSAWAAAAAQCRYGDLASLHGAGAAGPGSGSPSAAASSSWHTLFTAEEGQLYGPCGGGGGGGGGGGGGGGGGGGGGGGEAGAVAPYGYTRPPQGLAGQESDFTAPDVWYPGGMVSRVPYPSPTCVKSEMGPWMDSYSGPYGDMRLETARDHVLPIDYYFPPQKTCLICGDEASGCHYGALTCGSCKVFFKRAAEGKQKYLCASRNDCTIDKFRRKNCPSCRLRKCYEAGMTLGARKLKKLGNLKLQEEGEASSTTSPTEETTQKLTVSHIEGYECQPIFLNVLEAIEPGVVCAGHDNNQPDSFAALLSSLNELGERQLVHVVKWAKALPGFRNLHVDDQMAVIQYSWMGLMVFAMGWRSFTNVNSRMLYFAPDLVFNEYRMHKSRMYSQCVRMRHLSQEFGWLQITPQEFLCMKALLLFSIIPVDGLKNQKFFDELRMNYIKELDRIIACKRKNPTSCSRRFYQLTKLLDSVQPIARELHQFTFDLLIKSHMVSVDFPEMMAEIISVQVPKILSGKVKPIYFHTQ
assayNotes: Androgen receptor binding assay ([3H]R1881, HAP) in cytosol of HEK-293 cells transfected with hAR
testParameters: Table 1; relative to R1881 = 100, transfected cells
quantity: Human Androgen Receptor Binding (%) RBA R1881 = 100

molecule=CC(C)NCc1ccc(OCCCN2C(=S)N(c3ccc(C#N)c(C(F)(F)F)c3)C(=O)C2(C)C)c(Cl)c1 reportedmeasurement=29.0
molecule=CC1(C)C(=O)N(c2ccc(C#N)c(C(F)(F)F)c2)C(=S)N1CCCOc1ccc(C(N)=O)cc1 reportedmeasurement=17.5
molecule=Cc1cc(=O)oc2cc(OCCCN3C(=S)N(c4ccc(C#N)c(C(F)(F)F)c4)C(=O)C3(C)C)ccc12 reportedmeasurement=170.0
molecule=CCC(=O)c1ccc(OCCCN2C(=S)N(c3ccc(C#N)c(C(F)(F)F)c3)C(=O)C2(C)C)cc1 reportedmeasurement=64.7
molecule=CC1(C)C(=O)N(c2ccc(C#N)c(Cl)c2)C(=S)N1CCCOc1ccc(S(C)(=O)=O)cc1 reportedmeasurement=18.1
molecule=Cc1cc(=O)oc2ccc(OCCCN3C(=S)N(c4ccc(C#N)c(C(F)(F)F)c4)C(=O)C3(C)C)cc12 reportedmeasurement=39.6
molecule=CC1(C)C(=O)N(c2ccc(C#N)c(C(F)(F)F)c2)C(=S)N1CCCOc1ccc(CN2CCSCC2)cc1 reportedmeasurement=161.6
molecule=CC1(C)C(=O)N(c2ccc(C#N)c(C(F)(F)F)c2)C(=S)N1CCCOc1ccc(S(=O)(=O)N2CCCC2)cc1 reportedmeasurement=29.3
molecule=CN(C)Cc1ccc(OCCCN2C(=S)N(c3ccc(C#N)c(C(F)(F)F)c3)C(=O)C2(C)C)cc1 reportedmeasurement=15.6
molecule=CC1(C)C(=O)N(c2ccc(C#N)c(C(F)(F)F)c2)C(=S)N1CCCOc1ccc2c(C(F)(F)F)cc(=O)[nH]c2c1 reportedmeasurement=2.0
molecule="CCCC(NC(CC)CC)c1cccc(OCCCCN2C(=S)N(c3ccc(C#N)c(C(F)(F)F)c3)C(=O)C2(C)C)c1 (stereo not drawn)" reportedmeasurement=9.7
molecule=Cc1cc(CN2CCOCC2)ccc1OCCCN1C(=S)N(c2ccc(C#N)c(C(F)(F)F)c2)C(=O)C1(C)C reportedmeasurement=209.0
molecule=CC1(C)C(=O)N(c2ccc(C#N)c(C(F)(F)F)c2)C(=S)N1CCCOc1ccc2ccc(=O)oc2c1 reportedmeasurement=61.8
molecule="CC(NC1CC1)c1ccc(OCCCN2C(=S)N(c3ccc(C#N)c(C(F)(F)F)c3)C(=O)C2(C)C)cc1 (stereo not drawn)" reportedmeasurement=21.7
molecule=Cc1cc(CNC(C)C)ccc1OCCCN1C(=S)N(c2ccc(C#N)c(C(F)(F)F)c2)C(=O)C1(C)C reportedmeasurement=59.0
